Tested on: human Factor 7 mRNA
Procedure text: Antisense inhibition of human Factor 7 mRNA in HepB3 cells, lipofectin, 50 nM, real-time RT-PCR
Format: cell-based
Particulars: HepB3 cells; gapmers targeted to nucleobases 14707 to 14732 of SEQ ID NO: 1 (Table 11)
In the oligonucleotide strings, read from the 5' end, every base follows the letter of its sugar. An asterisk marks phosphorothioate; unmarked linkages are phosphodiester. Other units and linkages are bracketed, terminal groups are in braces. A string of capitals states the bases alone. e = 2'-O-(2-methoxyethyl) (MOE); [5mC] = 5-methylcytosine; d = 2'-deoxy (DNA)
Recorded metric: % Inhibition of human Factor 7 mRNA levels (%)

| Substance | Measurement target | Result unit | Experimental result |
| --- | --- | --- | --- |
| 422202 (antisense eA*eG*e[5mC]*d[5mC]*dT*dG*dA*dG*dG*d[5mC]*d[5mC]*dA*dG*d[5mC]*dA*dG*dA*eT*e[5mC]*eA) [compound 422202] | human Factor 7 mRNA | % | 49 |
| 422283 (antisense e[5mC]*eA*dG*d[5mC]*dA*dG*d[5mC]*d[5mC]*dT*dG*dA*dG*dG*d[5mC]*d[5mC]*eA*eG*e[5mC]*eA*eG) [compound 422283] | human Factor 7 mRNA | % | 50 |
| 422282 (antisense eA*eG*d[5mC]*dA*dG*d[5mC]*d[5mC]*dT*dG*dA*dG*dG*d[5mC]*d[5mC]*dA*eG*e[5mC]*eA*eG*eA) [compound 422282] | human Factor 7 mRNA | % | 48 |
| 422132 (antisense eG*e[5mC]*eA*eG*e[5mC]*d[5mC]*dT*dG*dA*dG*dG*d[5mC]*d[5mC]*dA*dG*e[5mC]*eA*eG*eA*eT) [compound 422132] | human Factor 7 mRNA | % | 54 |
| 422130 (antisense eG*e[5mC]*e[5mC]*eT*eG*dA*dG*dG*d[5mC]*d[5mC]*dA*dG*d[5mC]*dA*dG*eA*eT*e[5mC]*eA*e[5mC]) [compound 422130] | human Factor 7 mRNA | % | 79 |
